- target.or.test.system: T1, DVL3, Q92997
- T1 sequence (Q92997 244-331, limits assumed, looked up): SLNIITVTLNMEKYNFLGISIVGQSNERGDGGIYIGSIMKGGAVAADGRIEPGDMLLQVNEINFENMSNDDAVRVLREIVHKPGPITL
- test.protocol: holdup assay
- Parameters: key: below the threshold = too weak to quantify, mostly under pKd 3.1 to 4
- particulars: plain residues with an end cap or a label only (N-terminal biotin on a linker: ahx)
endpoint.name: pKd

binder	pKd
PSASCAVTAA [PDLIM4, P50479;P50479-2]	below the threshold
LSDPSVSTVV [GRIN1, Q05586;Q05586-2]	below the threshold
ESLLLGPSNF [SHROOM4, Q9ULL8]	below the threshold
RRRKRKRTYL [HPV49-L2, P36762]	3.57
SDSSGQEYSL [KCTD3, Q9Y597]	below the threshold

In the following, a different binder is considered.
input: Consider the binder TVICWPGSLV [LNX2, Q8N448] and give its recorded pKd.
output: 3.99

Data origin, for the record: paper PMC9482650
